These entries and their values trace back to patent US11478451B1.

Test system: SUDHL5 cells
test-summary: Induction of cytotoxicity (CellTiter-Glo, 5 h), SUDHL5
condition-set: read-out: Cytotox SUDHL5 [M] (median); IC50, median; SUDHL5, 5 h
Quick reference for IC50 among some compounds

compound	display-unit	IC50
CCc1c2c(nn1C)CN(C)CCCn1c(C(=O)O)c(CCCOc3cccc4cc(F)ccc34)c3ccc(Cl)c-2c31 [Example 113]	M	3e-07
Cc1c2c(nn1C)COCCCCn1c(C(=O)O)c(CCCOc3cccc4cc(F)ccc34)c3ccc(Cl)c-2c31 (single isomer, unassigned; enantiomer 2) [Example 17]	M	2.2e-07
Cc1c2c(nn1CCCN1CCN(C)CC1)COCCCCn1c(C(=O)O)c(CCCOc3cccc4ccccc34)c3ccc(Cl)c-2c31 (single isomer, unassigned; enantiomer 2) [Example 50]	M	4.4e-07
CCc1nn(CCN2CCOCC2)c2c1-c1c(Cl)ccc3c(CCCOc4cccc5ccccc45)c(C(=O)O)n(c13)CCCCOC2 (racemic) [Example 8]	M	3.5e-07
CCc1c2c(nn1C)CCCN(C)CCn1c(C(=O)O)c(CCCOc3cccc4cc(F)ccc34)c3ccc(Cl)c-2c31 (single isomer, unassigned) [Example 117]	M	2.6e-06
CCc1c2c(nn1C)CCCN(C)CCn1c(C(=O)O)c(CCCOc3cccc4cc(F)ccc34)c3ccc(Cl)c-2c31 (single isomer, unassigned) [Example 116]	M	4.1e-07
CCc1c2c(nn1C)CN(C)CCCCn1c(C(=O)O)c(CCCOc3cccc4cc(F)ccc34)c3ccc(Cl)c-2c31 (single isomer, unassigned; enantiomer 2) [Example 7]	M	6.1e-06
CCc1nn(CCN2CCOCC2)c2c1-c1c(Cl)ccc3c(CCCOc4cccc5ccccc45)c(C(=O)O)n(c13)CCCCOC2 (single isomer, unassigned; enantiomer 1) [Example 9]	M	2.9e-07
CCc1nn(CCN2CCOCC2)c2c1-c1c(Cl)ccc3c(CCCOc4cccc5ccccc45)c(C(=O)O)n(c13)C/C=C\CN(C)C2 (single isomer, unassigned; enantiomer 2) [Example 44]	M	7e-07
CCc1nn(CCN2CCOCC2)c2c1-c1c(Cl)ccc3c(CCCOc4cccc5ccccc45)c(C(=O)O)n(c13)CCCCN(C)C2 (single isomer, unassigned; enantiomer 1) [Example 46]	M	4e-07
CCc1c2c(nn1C)CN(C)CCCCn1c(C(=O)O)c(CCCOc3cccc4cc(F)ccc34)c3ccc(Cl)c-2c31 (single isomer, unassigned; enantiomer 1) [Example 6]	M	1.5e-07
Cc1c2c(nn1C)COCCCCn1c(C(=O)O)c(CCCOc3cccc4ccccc34)c3ccc(Cl)c-2c31 (single isomer, unassigned; enantiomer 1) [Example 26]	M	4.6e-07
Cc1c2c(nn1C)COCC(F)(F)CCn1c(C(=O)O)c(CCCOc3cccc4ccccc34)c3ccc(Cl)c-2c31 (racemic) [Example 55]	M	6.7e-07
CCc1c2c(nn1C)COCC1(CCn3c(C(=O)O)c(CCCOc4cccc5cc(F)ccc45)c4ccc(Cl)c-2c43)CC1 [Example 111]	M	6e-06
CCc1c2c(nn1C)CN(C)CC(F)(F)CCn1c(C(=O)O)c(CCCOc3cccc4cc(F)ccc34)c3ccc(Cl)c-2c31 (single isomer, unassigned) [Example 127]	M	2.4e-07
CCc1c2c(nn1C)CCCN(CC(F)F)CCn1c(C(=O)O)c(CCCOc3cccc4cc(F)ccc34)c3ccc(Cl)c-2c31 [Example 119]	M	1.4e-07
CCc1c2c(nn1C)CN(CC(F)F)CCCCn1c(C(=O)O)c(CCCOc3cccc4cc(F)ccc34)c3ccc(Cl)c-2c31 (racemic) [Example 62]	M	3.1e-07
Cc1c2c(nn1C)CN(CC(F)(F)F)CCCCn1c(C(=O)O)c(CCCOc3cccc4cc(F)ccc34)c3ccc(Cl)c-2c31 (single isomer, unassigned; enantiomer 2) [Example 60]	M	6.9e-06
Cc1c2c(nn1C)COCC(F)(F)CCn1c(C(=O)O)c(CCCOc3cccc4ccccc34)c3ccc(Cl)c-2c31 (single isomer, unassigned; enantiomer 1) [Example 56]	M	2.2e-07
CCc1c2c(nn1C)COCC1CC1Cn1c(C(=O)O)c(CCCOc3cccc4cc(F)ccc34)c3ccc(Cl)c-2c31 (single isomer, unassigned; (+)) [Example 107]	M	4.6e-07
CCc1c2c(nn1C)COCC(O)CCn1c(C(=O)O)c(CCCOc3cccc4cc(F)ccc34)c3ccc(Cl)c-2c31 (stereo not shown) [Example 102]	M	8.4e-06
Cc1c2c(nn1C)COCC(F)(F)CCn1c(C(=O)O)c(CCCOc3cccc4ccccc34)c3ccc(Cl)c-2c31 (single isomer, unassigned; enantiomer 2) [Example 57]	M	4.9e-06
